- TARGET OF ASSAY: hERG (Homo sapiens)
- Construct: gene KCNH2
- Sequence (Q12809 whole entry): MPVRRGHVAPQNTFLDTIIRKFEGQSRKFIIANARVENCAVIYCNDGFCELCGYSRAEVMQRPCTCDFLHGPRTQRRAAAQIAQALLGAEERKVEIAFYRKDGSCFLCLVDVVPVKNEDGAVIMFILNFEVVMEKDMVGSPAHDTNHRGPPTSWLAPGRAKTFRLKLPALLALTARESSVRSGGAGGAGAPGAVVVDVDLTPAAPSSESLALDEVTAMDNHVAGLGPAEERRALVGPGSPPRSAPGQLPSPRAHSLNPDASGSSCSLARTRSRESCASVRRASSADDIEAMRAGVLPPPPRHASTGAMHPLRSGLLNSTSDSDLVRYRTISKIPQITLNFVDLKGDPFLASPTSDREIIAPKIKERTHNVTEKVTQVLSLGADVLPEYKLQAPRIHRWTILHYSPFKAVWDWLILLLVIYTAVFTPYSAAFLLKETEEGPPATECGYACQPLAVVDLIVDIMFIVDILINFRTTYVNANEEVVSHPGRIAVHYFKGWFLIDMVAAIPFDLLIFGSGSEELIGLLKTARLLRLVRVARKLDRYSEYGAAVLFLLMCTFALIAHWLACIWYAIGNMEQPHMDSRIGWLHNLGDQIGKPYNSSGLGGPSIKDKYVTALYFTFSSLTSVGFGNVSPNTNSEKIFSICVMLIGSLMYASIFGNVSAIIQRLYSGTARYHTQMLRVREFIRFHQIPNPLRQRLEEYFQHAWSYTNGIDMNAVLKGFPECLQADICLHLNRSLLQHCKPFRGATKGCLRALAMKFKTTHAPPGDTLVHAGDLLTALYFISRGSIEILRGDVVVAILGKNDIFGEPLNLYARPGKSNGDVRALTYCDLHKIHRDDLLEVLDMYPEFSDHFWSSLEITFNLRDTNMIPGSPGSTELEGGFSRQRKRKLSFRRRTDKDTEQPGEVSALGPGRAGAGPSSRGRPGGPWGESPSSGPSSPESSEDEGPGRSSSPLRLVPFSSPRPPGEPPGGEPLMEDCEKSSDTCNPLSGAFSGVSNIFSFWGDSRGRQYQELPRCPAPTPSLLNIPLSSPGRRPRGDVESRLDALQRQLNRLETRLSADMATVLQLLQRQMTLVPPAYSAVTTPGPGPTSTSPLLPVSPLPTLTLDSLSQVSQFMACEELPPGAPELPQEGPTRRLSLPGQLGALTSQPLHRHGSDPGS
- Parameters: hERG inhibition liability assay
REPORTED PROPERTY: inhibition at 10 µM (%)
One number for each entry, in %.

Answered cases to consult:
CN(C)C(=O)NCc1ccc(-c2nnc(N)s2)cc1: 6.4
Nc1nnc(-c2cccc(-c3ccc4c(c3)OCO4)c2)s1: 27.9
Nc1nnc(Cc2cccc([N+](=O)[O-])c2)s1: -1.8

Batch lookup, inhibition at 10 µM per entry.
1. COC(=O)C(Cc1ccccc1)Nc1nnc(N)s1 (stereo not drawn)
2. Nc1nnc(/C=C/c2ccccc2)s1
3. Nc1nnc(NCc2ccc(Cl)c(Cl)c2)s1

Response line:
1. 28.7
2. 58.7
3. 75.6

Please give inhibition at 10 µM, item by item, for the list that follows.
1. Nc1nnc(-c2cccc([N+](=O)[O-])c2)s1
2. Nc1nnc(-c2ccc(O)c(O)c2)s1 [1d, 3′,4′-dihydroxy-phenyl-1,3,4-thiadiazole]
3. Nc1nnc(NCc2ccc(F)cc2)s1

Response line:
1: 7; 2: 19.2; 3: 96.9

Need inhibition at 10 µM for each of these compounds.
1. COc1ccccc1-c1nnc(N)s1
2. COc1ccc(CNc2nnc(N)s2)cc1OC
3. Nc1nnc(-c2ccc(Cl)c(Cl)c2)s1
4. C[C@@H](c1cccc(C(=O)c2ccccc2)c1)c1nnc(N)s1

Response line:
1: 5.2; 2: 35.7; 3: 91.7; 4: 16

Hi, could you look up inhibition at 10 µM for each item in my list?
1. Cc1ccc(CNc2nnc(N)s2)cc1
2. COc1cccc(CNc2nnc(N)s2)c1
3. Nc1nnc(N2CCC(Cc3ccccc3)CC2)s1
4. Nc1nnc(-c2cccc(Br)c2)s1
5. Nc1nnc(N)s1
6. Nc1nnc(NCCCc2ccccc2)s1
7. Nc1nnc(NCc2ccccc2Cl)s1

Response line:
[77.4, 108, 46.5, 14.6, 4.7, 81.1, 15.2]

Summary for this compound, `Nc1nnc(-c2ccccc2)s1` : inhibition at 10 µM is -3.3

###

- TARGET OF ASSAY: CYP2C9 (Homo sapiens, UniProt P11712)
- Sequence (P11712 whole entry): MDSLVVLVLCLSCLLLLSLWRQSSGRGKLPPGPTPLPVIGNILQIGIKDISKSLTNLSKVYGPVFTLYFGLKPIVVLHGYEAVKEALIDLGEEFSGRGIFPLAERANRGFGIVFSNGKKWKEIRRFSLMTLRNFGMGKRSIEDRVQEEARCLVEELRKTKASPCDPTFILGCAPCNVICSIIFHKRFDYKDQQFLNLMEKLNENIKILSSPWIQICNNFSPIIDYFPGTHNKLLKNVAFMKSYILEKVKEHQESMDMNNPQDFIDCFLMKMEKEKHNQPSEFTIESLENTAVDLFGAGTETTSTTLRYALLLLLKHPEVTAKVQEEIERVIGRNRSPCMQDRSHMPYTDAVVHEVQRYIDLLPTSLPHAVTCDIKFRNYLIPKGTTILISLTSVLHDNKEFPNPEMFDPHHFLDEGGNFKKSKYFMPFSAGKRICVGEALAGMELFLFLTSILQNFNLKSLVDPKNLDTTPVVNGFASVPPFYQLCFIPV
- ASSAY METHOD TEXT: in vitro
- Set-up: cytochrome P450 isoform inhibition liability assay
For each entry below, report its inhibition at 10 µM value.

Examples from the recorded data:
Nc1nnc(CCC(=O)c2ccccc2)s1: -30.6%
Nc1nnc(-c2ccc(OCc3ccc(Cl)c(Cl)c3)cc2)s1: 31.3%

Would you be so kind as to report inhibition at 10 µM for each listed record?
1. Nc1nnc(-c2cccc(-c3ccc(C(F)(F)F)cc3)c2)s1
2. Nc1nnc(-c2cccc(-c3cccc(C(F)(F)F)c3)c2)s1
3. N#Cc1ccc(CNc2nnc(N)s2)cc1

Response line:
["25.6%", "46.1%", "15%"]

// each compound listed below needs its inhibition at 10 µM
1. Nc1nnc(-c2cccc(-c3ccccc3)c2)s1
2. Nc1nnc(N)s1
3. Nc1cccc(-c2ccc(-c3nnc(N)s3)cc2)c1
4. COc1cccc(OC)c1-c1nnc(N)s1
5. Nc1nnc(-c2ccc(-c3nnc(N)s3)c(N)c2)s1
6. Nc1nnc(NCCc2ccccc2)s1

Response line:
1: 24.1%; 2: 46%; 3: 1.9%; 4: -5.6%; 5: -4.2%; 6: 30.4%

Each of the following entries comes with a recorded value; kindly state inhibition at 10 µM for each.
1. NCc1ccc(-c2nnc(N)s2)cc1
2. COc1ccc(-c2ccc(-c3nnc(N)s3)nc2)cc1

Response line:
["-7.9%", "19.7%"]

Quick batch: inhibition at 10 µM for everything below.
1. Nc1nnc(-c2cccc(-c3ccc4c(c3)OCO4)c2)s1
2. COc1cccc(CNc2nnc(N)s2)c1
3. Cc1nnc(N)s1
4. Nc1nnc(NCc2ccccc2Cl)s1
5. Nc1cccc(-c2nnc(N)s2)c1

Response line:
["28.7%", "33.5%", "-10.9%", "13.9%", "-20.2%"]

Origin of measurements: paper PMC5623949
